System: PDC KRAS tumor spheroids with HUVEC/MSC, viability
protocolSummary: Anticancer human tumor 349418-098-R-PDC patient-derived lung adenocarcinoma cell line growth inhibition [KRAS2]
experimentalParameters: second compound 0.1 µM; first compound 10 µM; stronger effect = lower value
measurementType: viability, T/C (%)
Report the value in % with no unit label.

INSERT INTO assay_data (compound, unitsymbol, reportedmeasurement) VALUES
  ('COc1cc2nccc(Oc3ccc(NC(=O)C4(C(=O)Nc5ccc(F)cc5)CC4)cc3)c2cc1OC + C=CC(=O)N1CCN(c2nc(=O)n(-c3c(C)ccnc3C(C)C)c3nc(-c4c(O)cccc4F)c(F)cc23)C(C)C1', '%', 18.1),
  ('O=C(c1cc(Cc2n[nH]c(=O)c3ccccc23)ccc1F)N1CCN(C(=O)C2CC2)CC1 + COc1cc2nc(C)nc(NC(C)c3cc(N)cc(C(F)(F)F)c3)c2cc1OC1CCOC1', '%', 32.3);

What value of viability, T/C has been reported for the following compound? Cn1nccc1Nc1nccc(-c2cc3c(s2)C(C)(C)N(CCN2CCOCC2)C3=O)n1 + CC1OCC2(CCN(c3cnc(Sc4ccnc(N)c4Cl)c(N)n3)CC2)C1N
4.04

###

System: PDC KRAS tumor spheroids with HUVEC/MSC, viability
protocolSummary: Anticancer human tumor 349418-098-R-PDC cell line growth inhibition [KRAS2];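 also: spheroids exposed to compounds for seven days before readout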
experimentalParameters: second compound 1 µM; first compound 10 µM; stronger effect = lower value
measurementType: viability, T/C (%)
Report as a plain number; the unit % is understood.

Example entries and their recorded answers appear below.
INSERT INTO assay_data (molecule, measurementtype, reportedmeasurement) VALUES
  ('COc1cc(Nc2ncc3c(n2)-c2ccc(Cl)cc2C(c2c(F)cccc2OC)=NC3)ccc1C(=O)O + CC1OCC2(CCN(c3cnc(Sc4ccnc(N)c4Cl)c(N)n3)CC2)C1N', 'viability, T/C', 25),
  ('CC(C)NCC(C(=O)N1CCN(c2ncnc3c2C(C)CC3O)CC1)c1ccc(Cl)cc1 (centres undefined) + COc1cc2nc(C)nc(NC(C)c3cc(N)cc(C(F)(F)F)c3)c2cc1OC1CCOC1', 'viability, T/C', 3.87);

May I ask what viability, T/C has been recorded for O=C(c1cc(Cc2n[nH]c(=O)c3ccccc23)ccc1F)N1CCN(C(=O)C2CC2)CC1 + CNCc1ccccc1-c1csc(C(C)Nc2nc(C)nc3cc(OC)c(OC)cc23)c1 ?
27.8

May I ask what viability, T/C has been recorded for CC1OCC2(CCN(c3cnc(Sc4ccnc(N)c4Cl)c(N)n3)CC2)C1N (centres undefined) + COc1cc2nc(C)nc(NC(C)c3cc(N)cc(C(F)(F)F)c3)c2cc1OC1CCOC1 ?
74.1

###

Tested on: PDC KRAS tumor spheroids with HUVEC/MSC, viability
protocolSummary: Anticancer human tumor 349418-098-R-PDC cell line growth inhibition [KRAS2];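 also: spheroids exposed to compounds for seven days before readout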
experimentalParameters: second compound 0.1 µM; first compound 1 µM; stronger effect = lower value
Rule for this label: 1 (yes) means viability, T/C is less than 30%; 0 (no) means viability, T/C is at least 30%.

As a guide, the following entries are already answered.
INSERT INTO measurements (molecule, experimentalsystem, classname) VALUES
  ('COc1cc(Nc2ncc3c(n2)-c2ccc(Cl)cc2C(c2c(F)cccc2OC)=NC3)ccc1C(=O)O + C=CC(=O)N1CCN(c2nc(OCC3CCCN3C)nc3c2CCN(c2cccc4cccc(C)c24)C3)CC1CC#N', 'PDC KRAS tumor spheroids with HUVEC/MSC, viability', '1 (yes)'),
  ('CC1OCC2(CCN(c3cnc(Sc4ccnc(N)c4Cl)c(N)n3)CC2)C1N (centres undefined) + COc1cc2nc(C)nc(NC(C)c3cc(N)cc(C(F)(F)F)c3)c2cc1OC1CCOC1', 'PDC KRAS tumor spheroids with HUVEC/MSC, viability', '0 (no)'),
  ('CC1OCC2(CCN(c3cnc(Sc4ccnc(N)c4Cl)c(N)n3)CC2)C1N (centres undefined) + CNCc1ccccc1-c1csc(C(C)Nc2nc(C)nc3cc(OC)c(OC)cc23)c1', 'PDC KRAS tumor spheroids with HUVEC/MSC, viability', '0 (no)'),
  ('CC1COCCN1c1cc(-c2ccnn2C)c2ccnc(-c3ccn[nH]3)c2n1 (centres undefined) + COc1cc2nc(C)nc(NC(C)c3cc(N)cc(C(F)(F)F)c3)c2cc1OC1CCOC1', 'PDC KRAS tumor spheroids with HUVEC/MSC, viability', '1 (yes)'),
  ('COc1cc2nccc(Oc3ccc(NC(=O)C4(C(=O)Nc5ccc(F)cc5)CC4)cc3)c2cc1OC + C=CC(=O)N1CCN(c2nc(=O)n(-c3c(C)ccnc3C(C)C)c3nc(-c4c(O)cccc4F)c(F)cc23)C(C)C1', 'PDC KRAS tumor spheroids with HUVEC/MSC, viability', '0 (no)');

viability, T/C strictly < 30% for this molecule? CC1(C)CCC(CN2CCN(c3ccc(C(=O)NS(=O)(=O)c4ccc(NCC5CCOCC5)c([N+](=O)[O-])c4)c(Oc4cnc5[nH]ccc5c4)c3)CC2)=C(c2ccc(Cl)cc2)C1 + C=CC(=O)N1CCN(c2nc(OCC3CCCN3C)nc3c2CCN(c2cccc4cccc(C)c24)C3)CC1CC#N
0 (no)

Here's an entry: CCNC(=O)CC1N=C(c2ccc(Cl)cc2)c2cc(OC)ccc2-n2c(C)nnc21 (centres undefined) + C=CC(=O)N1CCN(c2nc(=O)n(-c3c(C)ccnc3C(C)C)c3nc(-c4c(O)cccc4F)c(F)cc23)C(C)C1 . Is its viability, T/C below 30%?
1 (yes)

###

System: PDC KRAS tumor spheroids with HUVEC/MSC, viability
protocolSummary: Anticancer human tumor 349418-098-R-PDC cell line growth inhibition [KRAS2];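 also: spheroids exposed to compounds for seven days before readout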
experimentalParameters: second compound 0.1 µM; first compound 0.1 µM; stronger effect = lower value
measurementType: viability, T/C

INSERT INTO measurements (molecule, reportedmeasurement) VALUES
  ('CC1COCCN1c1cc(-c2ccnn2C)c2ccnc(-c3ccn[nH]3)c2n1 (stereo unspecified) + CNCc1ccccc1-c1csc(C(C)Nc2nc(C)nc3cc(OC)c(OC)cc23)c1', '10.6%'),
  ('CC(=O)OC12COC1CC(O)C1(C)C(=O)C(O)C3=C(C)C(OC(=O)C(O)C(NC(=O)OC(C)(C)C)c4ccccc4)CC(O)(C(OC(=O)c4ccccc4)C21)C3(C)C (stereo unspecified) + COc1cc2nc(C)nc(NC(C)c3cc(N)cc(C(F)(F)F)c3)c2cc1OC1CCOC1', '24%'),
  ('COC(=O)c1ccc2c(C(=Nc3ccc(N(C)C(=O)CN4CCN(C)CC4)cc3)c3ccccc3)c(O)[nH]c2c1 + CNCc1ccccc1-c1csc(C(C)Nc2nc(C)nc3cc(OC)c(OC)cc23)c1', '96.6%'),
  ('CC1(C)CCC(CN2CCN(c3ccc(C(=O)NS(=O)(=O)c4ccc(NCC5CCOCC5)c([N+](=O)[O-])c4)c(Oc4cnc5[nH]ccc5c4)c3)CC2)=C(c2ccc(Cl)cc2)C1 + C=CC(=O)N1CCN(c2nc(=O)n(-c3c(C)ccnc3C(C)C)c3nc(-c4c(O)cccc4F)c(F)cc23)C(C)C1', '91.4%'),
  ('CN(C)C/C=C/C(=O)Nc1cc2c(Nc3ccc(F)c(Cl)c3)ncnc2cc1O[C@H]1CCOC1 + C=CC(=O)N1CCN(c2nc(=O)n(-c3c(C)ccnc3C(C)C)c3nc(-c4c(O)cccc4F)c(F)cc23)C(C)C1', '94%'),
  ('O=C(c1cc(Cc2n[nH]c(=O)c3ccccc23)ccc1F)N1CCN(C(=O)C2CC2)CC1 + CNCc1ccccc1-c1csc(C(C)Nc2nc(C)nc3cc(OC)c(OC)cc23)c1', '99.5%'),
  ('Cn1nccc1Nc1nccc(-c2cc3c(s2)C(C)(C)N(CCN2CCOCC2)C3=O)n1 + CC1OCC2(CCN(c3cnc(Sc4ccnc(N)c4Cl)c(N)n3)CC2)C1N', '27%'),
  ('CC1(C)CCC(CN2CCN(c3ccc(C(=O)NS(=O)(=O)c4ccc(NCC5CCOCC5)c([N+](=O)[O-])c4)c(Oc4cnc5[nH]ccc5c4)c3)CC2)=C(c2ccc(Cl)cc2)C1 + CC1OCC2(CCN(c3cnc(Sc4ccnc(N)c4Cl)c(N)n3)CC2)C1N', '97.1%'),
  ('COC(=O)c1ccc2c(C(=Nc3ccc(N(C)C(=O)CN4CCN(C)CC4)cc3)c3ccccc3)c(O)[nH]c2c1 + C=CC(=O)N1CCN(c2nc(=O)n(-c3c(C)ccnc3C(C)C)c3nc(-c4c(O)cccc4F)c(F)cc23)C(C)C1', '49.6%'),
  ('CCNC(=O)CC1N=C(c2ccc(Cl)cc2)c2cc(OC)ccc2-n2c(C)nnc21 (stereo unspecified) + COc1cc2nc(C)nc(NC(C)c3cc(N)cc(C(F)(F)F)c3)c2cc1OC1CCOC1', '48%');

Value wanted: viability, T/C (PDC KRAS tumor spheroids with HUVEC/MSC, viability) of entry CCNC(=O)CC1N=C(c2ccc(Cl)cc2)c2cc(OC)ccc2-n2c(C)nnc21 (stereo unspecified) + CNCc1ccccc1-c1csc(C(C)Nc2nc(C)nc3cc(OC)c(OC)cc23)c1
58.5%

Source listed as PubChem BioAssay AID1963866.
